Please go through the items and note down their apparent KD of K4 kissing-loop reporter.
System: K4 kissing-loop RNA reporter;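 note: bound reporter read as fluorescence of individual clusters on recovered sequencing chips by microscopy, with normalized cluster intensities fitted with a binding model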
ASSAY_COMMENT: apparent KD of K4 kissing-loop reporter; higher = weaker reporter binding
TEST_PARAMETERS: Eterna round: R107; input ligand: none
Reply with just the number (in nM).

apparent KD of K4 kissing-loop reporter for CUUUUACAGUCGGCCGCCACUGACAGCACUUCAAAGACAGUAUAAGGGUAGUGAUGUUACUUUAUCAGGACCGGGACUACCUAAC [theeternabot_sameState_KL_Trp_B_3] ?
205

Here is the next sequence: GAUAUAGUGAUGUUAUAUGGGAAGGAGUUACGAGGACCGGUACGGCCGCCACUCGAAACGAGUGAGGAUUUGGGAGAUUGGGUUU [SSTryptA.R]
376

Here is the next sequence: UUGAGCCUGACGUAAGUCAGGCUCUGCGAGCGAGGACCGGUACGGCCGCCACUCGGUGCAGUGAUGUUGCAUGGCCGCAAGGCCG [#2 Exclusion - Tryptophan A Attempt #15 (HarryS)]
363

Here is the next sequence: AGAACUGUCUUGGAUACCAGUGAUGUUGGUAUCGAUGUGUGAGUGCAAAGCGUCCCACAUCGCCCUUGGCAGCUAAGACUGUUCA [Omei KL Theo B Exc A v4]
302

Here is the next sequence: UGCGCUGUGUACUGUAAUGUUAUGCGGGAUACCAGAGUCUUUUUAUUCCCUUGGCAGCUUGAGUGAUGUUUGAUGCCGUUCUUGU [plpkmullin]
504

Here is the next sequence: UUUGGAAGCGGUGUUGAUUAGGGAGCGGAAGGAGCGCCGAUUAUGGCAGGUAGGUCGCCGGAAUGUAGUGAUGUUGCAUAGAGGG [ExArgA.W]
202

Here is the next sequence: GGGAGUAGUGCGGCCGCCACUGAGAAAGAAGAAGAAUAUAGUGAUGUUAUAUAGGAAUUAAAGAACAGGACCGGGCAUUAGAUUU [SSTRyptB.O]
219

Here is the next sequence: AAAACUAUCAGAAGGAGCGUGGAAUAUUCAUCUAUAUUUAAUACGAGUGAUGUUCGUAAUUCACAGGUAGGUCGCUGAUCAAUAA [JR_ExcArginiB_Sub007]
233

Here is the next sequence: AGCUCAGAGUGACUCGAUAAGAGUCACAAACGAGGACCGGUACGGCCGCCACUCGAAAUAAGGAGAGUGAUGUUCUCGCUGAGCA [FiskerMod 8 - Jieux - Same State Tryptophan A]
124

Here is the next sequence: ACUAGAAAACCAGUGAUGUUGGCCUGGGAUACCAGCUUCUAUUAUAGCCCUUGGCAGCCCUUUAGUACAAGUGACCUUGCGACCG [theeternabot_sameState_KL_Theo_A_9]
452

Here is the next sequence: AGACCACAAAGUGGUCAGUGUUCGCUGCCGCGAGGACCGGUACGGCCGCCACUCGCGAGUGAUGUUCGCGAGGGCAGCGAACACA [Omei KL Tryp A Exc A v4]
87.9

* * *

Tested on: MS2 coat protein
ASSAY_COMMENT: apparent KD of MS2 coat protein; higher = weaker reporter binding
TEST_PARAMETERS: Eterna round: R107; input ligand: theophylline 20 uM
PROPERTY_NAME: apparent KD of MS2 coat protein (nM)
Reply with just the number (in nM).

Give MS2 coat protein apparent KD of MS2 coat protein for GCACCAGGUACGGAUACCAGCUGCCCGAGAUACAUGAGGAUCACCCAUGUGACCUGAUUUAGCCCUUGGCAGCUGUACCUGGUGC [SSThB NP+V+V2 #1]
189

Here is the next sequence: GUUGGAUUCUCGGCCGCCACUGAGAGAGUCAUGUGAACAUGAGGAUCACCCAUGUAAUAUAUAUACAGGACCGGGAGGGUUGUAA [4.K]
35.8

Here is the next sequence: ACAUAUUGGUGGUACCAACGAAGGCGGAAACGAGGACCGGUACGGCCGCCACUCGGCGACAUGAGGAUCACCCAUGUGGUUAAAA [Exclusion - Tryptophan A (Freestyle 2)]
153

Here is the next sequence: UGGGAAGGAGGAAGGAGCGCCAUAAGGGUGACUGUCUGGGUACAUGAGGAUCACCCAUGUAGGCAGGUAGGUCGCCUCGCUCUCA [Bibienoned]
11.9

Here is the next sequence: UUGGGUUUGCGAAGGAGCGGGUAUGUUUUCUAGUGGAUCCUAACAUGAGGAUCACCCAUGUCCCAGGUAGGUCGCGCGGGUUUGG [12.V]
230

Here is the next sequence: CUGCCACAGAUAGAUACCAGAGGCGUGCAAGCUACAGCUCACAUGAGGAUCACCCAUGUUCUCCCUUGGCAGCUACGGUGUAAGG [theeternabot_exclusion_MS2_Theo_B_26]
24

Here is the next sequence: AUCUUGUACCGUAAUACUUUACGUUGGGAUACCAGCAUGGACCCAUGCCCUUGGCAGCUUUACAUGAGGAUCACCCAUGUUGUAG [SSTheo A #28]
42.2

Here is the next sequence: GCAUCCUAGUCGGCCGCCACUGCAGUAGCACCUGCUACAUGGAAACAUGAGGAUCACCCAUGUAGCAGGACCGGGACUAGGAUGC [(Trp1)-(TM)''-(TM)'-(Ms2)-(Trp2)_Design8]
733

Here is the next sequence: ACGAACGAUAGUGAUACCAGACGUACAUGAGGAUCACCCAUGUUUUGGGUAAGGUUAAUAGUCCCUUGGCAGCACUUUAAGUUCG [JR_ExcTheophyB_Sub007]
80.8

Here is the next sequence: CGAUCUUUCGAAAGAAGGAUCGAGUCUGAUACCAGAGACGAAAGUCUCCCUUGGCAGCAGUGCCAACAUGAGGAUCACCCAUGUU [Theophylline A 10]
19.1

Here is the next sequence: ACGUCAUGGAGAACGUGACGACUUAUCGAUACCAGCGAUUGAGAGCGCCCUUGGCAGCGAACAUGAGGAUCACCCAUGUCAAGGG [Same State - Theophylline A]
36.5

Here is the next sequence: CCACACAUGAGGAUCACCCAUGUAAUUGAUACCAGAUUUAAAUGAGUCCCUUGGCAGCAGUGAGCUAGAGUUGUCGUAUAUAUGG [Theo A SS t2]
23.8
